biological target: human BSEP (Homo sapiens, UniProt O95342); test: BSEP inhibition, taurocholate uptake in HEK293 human BSEP vesicles; type: biochemical
Sequence (O95342 whole entry): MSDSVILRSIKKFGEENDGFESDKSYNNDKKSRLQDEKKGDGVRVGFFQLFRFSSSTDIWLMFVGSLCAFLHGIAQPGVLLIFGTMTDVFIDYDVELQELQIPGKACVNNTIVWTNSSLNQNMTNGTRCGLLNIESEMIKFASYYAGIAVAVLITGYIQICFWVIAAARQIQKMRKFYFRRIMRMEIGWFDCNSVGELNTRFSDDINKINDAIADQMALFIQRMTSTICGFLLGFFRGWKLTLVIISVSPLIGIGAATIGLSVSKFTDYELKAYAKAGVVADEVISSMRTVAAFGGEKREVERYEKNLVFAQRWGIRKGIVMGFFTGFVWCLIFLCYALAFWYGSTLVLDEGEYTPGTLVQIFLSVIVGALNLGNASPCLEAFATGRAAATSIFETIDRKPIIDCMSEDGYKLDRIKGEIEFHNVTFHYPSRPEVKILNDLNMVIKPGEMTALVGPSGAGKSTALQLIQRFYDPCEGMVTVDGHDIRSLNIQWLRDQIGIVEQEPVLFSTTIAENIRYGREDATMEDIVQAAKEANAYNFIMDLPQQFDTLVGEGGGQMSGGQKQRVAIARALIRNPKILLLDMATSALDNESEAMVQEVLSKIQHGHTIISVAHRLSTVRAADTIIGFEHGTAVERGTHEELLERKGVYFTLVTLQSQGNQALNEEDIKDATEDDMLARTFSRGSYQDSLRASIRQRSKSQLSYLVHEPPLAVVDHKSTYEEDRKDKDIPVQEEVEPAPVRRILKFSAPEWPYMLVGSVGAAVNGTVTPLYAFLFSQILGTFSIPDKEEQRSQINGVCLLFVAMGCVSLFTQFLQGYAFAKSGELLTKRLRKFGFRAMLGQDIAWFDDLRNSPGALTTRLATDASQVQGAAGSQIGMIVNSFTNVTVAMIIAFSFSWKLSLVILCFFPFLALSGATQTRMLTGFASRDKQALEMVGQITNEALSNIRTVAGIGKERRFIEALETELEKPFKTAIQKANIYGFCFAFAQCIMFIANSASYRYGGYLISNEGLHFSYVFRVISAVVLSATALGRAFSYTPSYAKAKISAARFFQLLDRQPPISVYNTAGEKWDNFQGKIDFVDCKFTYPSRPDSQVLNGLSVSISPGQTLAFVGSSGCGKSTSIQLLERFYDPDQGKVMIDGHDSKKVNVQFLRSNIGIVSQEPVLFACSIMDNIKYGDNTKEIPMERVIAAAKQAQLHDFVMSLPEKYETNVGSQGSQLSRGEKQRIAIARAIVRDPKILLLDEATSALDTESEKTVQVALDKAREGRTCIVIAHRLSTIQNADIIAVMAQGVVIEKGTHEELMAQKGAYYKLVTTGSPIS
For each of the molecules below, state its IC50.

# return IC50 for each item in the list
1. CC(C)(C)c1cc(C(C)(C)C)c(NC(=O)c2c[nH]c3ccccc3c2=O)cc1O
2. CC(C)(CO)c1cc2cc(NC(=O)C3(c4ccc5c(c4)OC(F)(F)O5)CC3)c(F)cc2n1C[C@@H](O)CO
3. Cc1nn(C)cc1S(=O)(=O)NC(=O)c1ccc(-n2ccc(OCC(C)(C)C(F)(F)F)n2)nc1N1C[C@@H](C)CC1(C)C

Reply:
["> 100 µM", "> 100 µM", "37.1 µM"]
